Molecular target: T1, Human IL-11 (human, UniProt P20809 22-199)
T1 construct: Recombinant human IL-11 (GenScript Cat. No. Z03108-1) or IL-11 secreted by human cells; the mature form is said to have 178 residues; also called recombinant human IL-11; endogenously produced IL-11
T1 sequence: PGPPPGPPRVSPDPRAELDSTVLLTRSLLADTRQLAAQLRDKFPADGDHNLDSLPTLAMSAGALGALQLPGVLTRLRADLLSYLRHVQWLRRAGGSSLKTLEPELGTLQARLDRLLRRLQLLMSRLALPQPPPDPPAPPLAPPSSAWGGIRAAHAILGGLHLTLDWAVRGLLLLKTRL
Test: SPR, Single Cycle Kinetics, BIAcore T200; human IL-11 immobilised on CM5 chip, antibody in IgG1 format as analyte, 1:1 model
Entries and their Kd values follow.
OBSERVATION_TYPE: Kd (nM)

BINDER	MEASURED_RESULT
01L (antibody, IgG1, V domains shown, C91L variant of the YU100-H01 VL) VH: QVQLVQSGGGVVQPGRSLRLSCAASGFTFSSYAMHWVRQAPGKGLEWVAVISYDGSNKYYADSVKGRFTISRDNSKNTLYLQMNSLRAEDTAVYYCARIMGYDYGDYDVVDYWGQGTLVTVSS VL: QSALTQPRSVSGSPGQSVTISCTGTSSDVGAYNYVSWYQQHPGKAPKLMIYDVSERPSGVPDRFSGSKSGNTASLTISGLQAEDEADYYCLSYAGSYTWVFGGGTKLTVLG	33.5
01V (antibody, IgG1, V domains shown, C91V variant of the YU100-H01 VL) VH: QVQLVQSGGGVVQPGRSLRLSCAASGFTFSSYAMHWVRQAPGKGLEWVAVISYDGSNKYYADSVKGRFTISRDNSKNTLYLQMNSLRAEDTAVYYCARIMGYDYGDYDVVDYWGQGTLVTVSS VL: QSALTQPRSVSGSPGQSVTISCTGTSSDVGAYNYVSWYQQHPGKAPKLMIYDVSERPSGVPDRFSGSKSGNTASLTISGLQAEDEADYYCVSYAGSYTWVFGGGTKLTVLG	84.7
01A (antibody, IgG1, V domains shown, C91A variant of the YU100-H01 VL) VH: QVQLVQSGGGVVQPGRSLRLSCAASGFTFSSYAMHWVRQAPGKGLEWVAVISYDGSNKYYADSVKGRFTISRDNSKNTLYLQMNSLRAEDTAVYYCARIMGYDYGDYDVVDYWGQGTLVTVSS VL: QSALTQPRSVSGSPGQSVTISCTGTSSDVGAYNYVSWYQQHPGKAPKLMIYDVSERPSGVPDRFSGSKSGNTASLTISGLQAEDEADYYCASYAGSYTWVFGGGTKLTVLG	62.6
